Biological target: PaGRX (Pseudomonas aeruginosa)
Sequence (Q9HU55 whole entry): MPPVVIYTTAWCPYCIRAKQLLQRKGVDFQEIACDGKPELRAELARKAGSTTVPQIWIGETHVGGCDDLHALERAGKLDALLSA
Assay: biochemical
pKd: −log10 of the molar value.
Assign true (1) to entries whose pKd meets or exceeds 3; assign false (0) to the rest.

Here's what some known entries look like.
[
  {
    "compound_smiles": "O=C(O)c1ccc(-n2cccc2)cc1",
    "target_desc": "PaGRX (Pseudomonas aeruginosa)",
    "class": "false (0)"
  },
  {
    "compound_smiles": "Cn1nc(-c2ccco2)cc1C(=O)O",
    "target_desc": "PaGRX (Pseudomonas aeruginosa)",
    "class": "false (0)"
  },
  {
    "compound_smiles": "CN1CCN(C)c2cc(CN)ccc21",
    "target_desc": "PaGRX (Pseudomonas aeruginosa)",
    "class": "true (1)"
  },
  {
    "compound_smiles": "O=C(O)c1cc(-c2ccco2)[nH]n1",
    "target_desc": "PaGRX (Pseudomonas aeruginosa)",
    "class": "true (1)"
  },
  {
    "compound_smiles": "O=C(O)c1ccc(-n2cccn2)cc1",
    "target_desc": "PaGRX (Pseudomonas aeruginosa)",
    "class": "false (0)"
  }
]

Request: I'd appreciate it if you could say whether Cn1nc(C(=O)O)cc1-c1ccccc1 has pKd at least equal to 3.
Response: false (0)

Request: I'd appreciate it if you could say whether Cc1cc2ncc(C(=O)O)c(C)n2n1 has pKd at least equal to 3.
Response: true (1)

Ref: paper PMC6983068
